assay protocol: Ratio of drug level in brain to plasma in rat at 1 mg/kg, iv after 4 hrs
Type: ADME, organism-based
Set-up: dose 1 mg/kg, route intravenous
Field 'label' (enum: Yes / No). Set to Yes when Kp at 4 h is strictly under 0.8; else No.

Query block: Take the compound `CC(C)(C)C(=O)c1oc2nc(-c3ccccc3Cl)c(-c3ccc(Cl)cc3)cc2c1NC(=O)CO` and say whether its Kp at 4 h is less than 0.8.
Result block: No

---
Query block: Take the compound `CC(C)(O)C(=O)c1oc2nc(-c3ccccc3Cl)c(-c3ccc(Cl)cc3)cc2c1NC(=O)CO` and say whether its Kp at 4 h is less than 0.8.
Result block: Yes

Query block: Take the compound `CC(C)(C)C(=O)c1oc2nc(-c3ccccc3Cl)c(-c3ccc(Cl)cc3)cc2c1N` and say whether its Kp at 4 h is less than 0.8.
Result block: No

Query block: Take the compound `CC(C)(C)C(=O)c1oc2nc(-c3ccc(Cl)cc3Cl)c(-c3ccc(Cl)cc3)cc2c1N` and say whether its Kp at 4 h is less than 0.8.
Result block: No

Query block: Take the compound `CC(C)C(=O)c1oc2nc(-c3ccccc3Cl)c(-c3ccc(Cl)cc3)cc2c1NC(=O)CO` and say whether its Kp at 4 h is less than 0.8.
Result block: No

Query block: Take the compound `CC(=O)Nc1c(C(=O)C(C)(C)O)oc2nc(-c3ccccc3Cl)c(-c3ccc(Cl)cc3)cc12` and say whether its Kp at 4 h is less than 0.8.
Result block: Yes

###

assayed target: Cytochrome P450 2C19 (Homo sapiens)
Sequence (P33261 whole entry): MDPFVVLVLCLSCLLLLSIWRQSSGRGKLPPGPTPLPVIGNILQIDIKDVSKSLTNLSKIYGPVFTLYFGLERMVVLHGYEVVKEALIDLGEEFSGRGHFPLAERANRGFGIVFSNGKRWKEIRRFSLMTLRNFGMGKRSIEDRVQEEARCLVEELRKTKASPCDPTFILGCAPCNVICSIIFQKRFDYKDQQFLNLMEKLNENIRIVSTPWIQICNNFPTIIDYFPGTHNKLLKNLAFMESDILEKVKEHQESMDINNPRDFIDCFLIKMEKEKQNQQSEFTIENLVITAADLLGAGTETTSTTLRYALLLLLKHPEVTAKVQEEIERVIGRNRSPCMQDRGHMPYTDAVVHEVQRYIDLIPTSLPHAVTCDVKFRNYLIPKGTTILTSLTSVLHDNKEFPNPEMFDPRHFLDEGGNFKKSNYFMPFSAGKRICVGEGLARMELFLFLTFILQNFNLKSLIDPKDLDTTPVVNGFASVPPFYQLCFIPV
measured quantity: IC50 (µM)
Give the value in µM but do not write µM after it.

Query block: Provide one value: measured IC50 of `CC(C)(O)C(=O)c1oc2nc(-c3ccccc3Cl)c(-c3ccc(Cl)cc3)cc2c1NC(=O)CO`
Result block: 43

###

assayed target: Cytochrome P450 2C9 (Homo sapiens, UniProt P11712)
Sequence (P11712 whole entry): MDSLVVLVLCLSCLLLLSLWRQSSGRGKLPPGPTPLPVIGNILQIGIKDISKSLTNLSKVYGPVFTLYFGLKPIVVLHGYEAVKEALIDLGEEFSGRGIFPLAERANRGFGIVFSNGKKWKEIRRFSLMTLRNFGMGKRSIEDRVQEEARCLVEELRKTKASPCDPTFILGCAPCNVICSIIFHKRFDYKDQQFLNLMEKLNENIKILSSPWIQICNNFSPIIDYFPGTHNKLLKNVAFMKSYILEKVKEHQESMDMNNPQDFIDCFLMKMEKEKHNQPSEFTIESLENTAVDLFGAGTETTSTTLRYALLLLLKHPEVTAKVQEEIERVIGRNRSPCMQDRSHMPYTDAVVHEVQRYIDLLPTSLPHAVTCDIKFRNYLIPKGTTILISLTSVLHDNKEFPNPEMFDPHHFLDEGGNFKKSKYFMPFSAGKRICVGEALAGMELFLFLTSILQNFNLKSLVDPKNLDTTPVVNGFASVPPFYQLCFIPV
measured quantity: pIC50
In textbook form, pIC50 equals minus log to base ten of the concentration in mol/L.

Query block: Recall the reported pIC50 of `CC(C)(O)C(=O)c1oc2nc(-c3ccccc3Cl)c(-c3ccc(Cl)cc3)cc2c1NC(=O)CO` when tested on Cytochrome P450 2C9 (Homo sapiens, UniProt P11712).
Result block: 4.77

###

assay protocol: Metabolic stability in rat bile assessed as compound recovery at 1 mg/kg
Type: ADME, organism-based
Design: dose 1 mg/kg
details: read-out: Activity
measured quantity: dose excreted (%)
Give the value in % but do not write % after it.

Query block: Provide one value: measured dose excreted of `CC(C)(O)C(=O)c1oc2nc(-c3ccccc3Cl)c(-c3ccc(Cl)cc3)cc2c1NC(=O)CO`
Result block: 87

###

molecules and their reported clearance
assay protocol: Plasma clearance in rat
Format: ADME, organism-based
Please answer using a numeric value trailed by its unit.

Query block: Provide one value: measured clearance of `CC(=O)Nc1c(C(=O)C(C)(C)O)oc2nc(-c3ccccc3Cl)c(-c3ccc(Cl)cc3)cc12`
Result block: 16 mL/min/kg

Query block: Provide one value: measured clearance of `CC(C)(C)C(=O)c1oc2nc(-c3ccccc3Cl)c(-c3ccc(Cl)cc3)cc2c1NC(=O)CO`
Result block: 10 mL/min/kg

Query block: Provide one value: measured clearance of `CC(C)(O)C(=O)c1oc2nc(-c3ccccc3Cl)c(-c3ccc(Cl)cc3)cc2c1NC(=O)CO`
Result block: 8.6 mL/min/kg

---
Query block: Provide one value: measured clearance of `CC(C)(C)C(=O)c1oc2nc(-c3ccccc3Cl)c(-c3ccc(Cl)cc3)cc2c1N`
Result block: 22 mL/min/kg

Query block: Provide one value: measured clearance of `CC(C)C(=O)c1oc2nc(-c3ccccc3Cl)c(-c3ccc(Cl)cc3)cc2c1NC(=O)CO`
Result block: 20 mL/min/kg

Query block: Provide one value: measured clearance of `CC(C)(C)C(=O)c1oc2nc(-c3ccc(Cl)cc3Cl)c(-c3ccc(Cl)cc3)cc2c1N`
Result block: 5.6 mL/min/kg
